Measured values drawn from patent US20240272170A1 for this set.

biological target: T1, WA peptide (Octet assay of PS557 variants); assay: Octet (BLI), peptide on sensor, response after 200 s association
T1 construct: Peptide coated on the Octet sensor
Reported Octet response is given for each of the following binders.

| binder | readoutUnit | Octet response |
| --- | --- | --- |
| PS824 (designed binder, Variant of PS557) MPTAASATESAFEDTPAPARPEVDGRTKPKRQPRYHVVLWDDDDHTYQYVVVMLRSLFGHPPERGYRLAKEMDTQGRVIVLTTTREHAELKRDQIHAFGYDRLLARSKGSMKASIEAEE | nm | 0.165 |
| PS557 (other, Natural ClpS parent protein; also called WT; wild-type protein) MPTAASATESAIEDTPAPARPEVDGRTKPKRQPRYHVVLWNDDDHTYQYVVVMLQSLFGHPPERGYRLAKEVDTQGRVIVLTTTREHAELKRDQIHAFGYDRLLARSKGSMKASIEAEE | nm | 0.0049 |
| PS852 (designed binder, Variant of PS557) MPTAASATESAIEDTPAPARPEVDGRTKPKHQPRYHVVLWDDDDHTYQYVVVMLRSLFGHPPERGYRLAKEMDTQGRVIVLTTTREHAELKRDQIHAFGYDRLLARSKGSMKASIEAEE | nm | 0.0292 |
| PS833 (designed binder, Variant of PS557) MPTAASATESAIEDTPAPARPVVDGRTKPKRQPRYHVVLWDDDDHTYQYVVVMLQSLFGHPPERGYRLAKEMDTQGRVIVLTTTREHAELKRDQIHAFGYDRLLARSKGSMKASIEAEE | nm | 0.00561 |
